# Test system: 1321N1 astrocyte cell line

compound	1321N1 oxidative stress assay Toxic dose
Oc1ccc(O)cc1 [Hydroquinone, reference compound]	None
C=C(C)C1(O)OC(=O)C=C1OC (stereo not shown)	none
CC(=O)CCC(=O)O	None
C[C@@H]1C(=O)O[C@H]2[C@H]1CC[C@@]1(C)C=CC(=O)[C@@]3(C)O[C@@]213 [Epoxy(4,5α)-4,5-dihydrosantonin]	None

====

# Test system: 1321N1 astrocyte cell line
# assay.summary: 1321N1 oxidative stress assay (serum withdrawal, DCF)
# experimental.context: minimum dose at which toxicity was observed
metric.name: 1321N1 oxidative stress assay Toxic dose

molecule	1321N1 oxidative stress assay Toxic dose
CC(C)N(C(=O)CCl)c1ccccc1	10 µM
C=C(C)/C=C1/C=CC(=O)C(C)=C1	none
COc1cccc(O)c1O	none
S=C=NCc1ccccc1 [Benzyl isothiocyanate]	none
CC(=O)OC1CC[C@@]2(C)C(CC[C@H]3[C@@H]4CC=C(C(C)=O)[C@@]4(C)C(=O)C[C@@H]32)C1 (stereo partly drawn)	None

Data point: COc1cc(O)c(C)c(O)c1 [2,6-Dihydroxy-4-methoxytoluene] ; 1321N1 oxidative stress assay Toxic dose = None

Data point: COC(=O)[C@H](O)[C@H]1C(C)(C)[C@H](OC(C)=O)[C@@H]2CC3=C4CC(=O)O[C@@H](c5ccoc5)[C@]4(C)CC[C@@H]3[C@@]1(C)C2=O [Swietenolide 3 acetate] ; 1321N1 oxidative stress assay Toxic dose = none

Data point: COc1ccc2c(c1)OC/C(=C/c1ccc(OC)c(OC)c1)C2=O ; 1321N1 oxidative stress assay Toxic dose = none

Data point: ClC1=C(Cl)C2(Cl)C3C(Cl)C(Cl)CC3C1(Cl)C2(Cl)Cl (stereo not drawn) ; 1321N1 oxidative stress assay Toxic dose = none

====

Documented C6 oxidative stress assay Max reduction across a set of compounds
# System: C6 astrocyte cell line
# assay.summary: C6 oxidative stress assay (serum withdrawal, DCF)
# experimental.context: maximum % inhibition of DCF signal
Provide the reading as a plain figure in %.

compound	C6 oxidative stress assay Max reduction, %
C[C@@H]1C(=O)O[C@H]2[C@H]1CC[C@@]1(C)C=CC(=O)[C@@]3(C)O[C@@]213 [Epoxy(4,5α)-4,5-dihydrosantonin]	62
O=C(CC[N+](=O)[O-])OC[C@H]1O[C@@H](O)[C@H](OC(=O)CC[N+](=O)[O-])[C@@H](OC(=O)CC[N+](=O)[O-])[C@@H]1OC(=O)CC[N+](=O)[O-]	40
CC(=O)O[C@H]1CCC2(C)C3=C(CCC2C1(C)C)[C@@]1(C)CC[C@@H](C(C)CCC=C(C)C)[C@]1(C)CC3 (stereo partly shown) [Euphol acetate]	0

Kindly review the next compound as well.
Summary: CC(=O)O[C@@H]1C[C@H]2C(C)(C)C(=O)C=C[C@]2(C)[C@H]2CC[C@]3(C)C(=CC(=O)O[C@H]3c3ccoc3)[C@@]21C , C6 astrocyte cell line, C6 oxidative stress assay Max reduction = 61

====

# System: NSC34 cells
# assay.summary: NSC34 oxidative stress assay (serum withdrawal, DCF)
# experimental.context: minimum dose at which toxicity was observed
Where a name gives a salt, the structure may show the parent alone.
Documented NSC34 oxidative stress assay Toxic dose across a set of compounds
Provide the reading as a plain figure in µM.

compound	units	NSC34 oxidative stress assay Toxic dose
O=C(/C=C/c1ccc(O)cc1)c1ccc(O)cc1O [Isoliquiritigenin]	µM	1
Cc1[nH]c2ccccc2c1CN(C)C [2-Methyl gramine]	µM	3
C=C(CC)C(=O)c1ccc(OCC(=O)O)c(Cl)c1Cl [Ethacrynic acid, reference compound]	µM	10
OC[C@H]1O[C@@H](n2cnc3c(NCc4ccco4)ncnc32)[C@H](O)[C@@H]1O [Kinetin riboside]	µM	3
Cc1cc(O)c(C)c(O)c1C(=O)O [3-Methylorsellinic acid]	µM	0.3
COC(=O)[C@H](O)[C@H]1C(C)(C)[C@H](OC(C)=O)[C@@H]2CC3=C4CC(=O)O[C@@H](c5ccoc5)[C@]4(C)CC[C@@H]3[C@@]1(C)C2=O [Swietenolide 3 acetate]	µM	0.3
COc1cccc(O)c1O [3-Methoxycatechol]	µM	0.3
CC(=O)O[C@@H]1C[C@H]2C(C)(C)C(=O)C=C[C@]2(C)[C@H]2CC[C@]3(C)C(=CC(=O)O[C@H]3c3ccoc3)[C@@]21C [Deoxygedunin]	µM	10

Data point: COc1cc(O)cc(OC)c1OC [Antiarol] ; NSC34 oxidative stress assay Toxic dose = 10

Data point: CN1CCc2cccc3c2[C@H]1Cc1ccc(O)c(O)c1-3 [Apomorphine hydrochloride, reference compound] ; NSC34 oxidative stress assay Toxic dose = 10
